# Test system: Aspergillus fumigatus
# MEASUREMENT PROTOCOL: Fungicidal activity against Aspergillus fumigatus after 48 hr
# Format: functional
Below is a list of entries, each paired with its recorded MFC value.
Lab book: enter the figure in µg/mL, no units written.

See these solved cases before continuing.
>>> obs_value("COC1=CC(=O)C[C@@H](C)[C@]12Oc1c(Cl)c(OC)cc(OC)c1C2=O")
12.5
>>> obs_value("O=c1oc2ccccc2c(O)c1C(c1c(O)c2ccccc2oc1=O)c1coc2ccccc2c1=O")
50
>>> obs_value("Cc1[nH]n(-c2ccccc2)c(=O)c1C(c1coc2ccccc2c1=O)c1c(C)[nH]n(-c2ccccc2)c1=O")
50
>>> obs_value("Cc1cc2oc(=O)c(C(c3c(O)c4cc(C)c(C)cc4oc3=O)c3coc4ccccc4c3=O)c(O)c2cc1C")
25

Hello, please tell me recorded MFC for this one: Cc1cc(O)c(C(c2c(O)cc(C)oc2=O)c2coc3ccccc3c2=O)c(=O)o1
50

---

Below is a list of entries, each paired with its recorded MIC value.
# Test system: Aspergillus fumigatus
# MEASUREMENT PROTOCOL: Antifungal activity against Aspergillus fumigatus assessed as growth inhibition after 48 hr by macrodilution method
# Type: functional
Lab book: enter the figure in mg/L, no units written.

See these solved cases before continuing.
>>> obs_value("Cc1cc(O)c(C(c2c(O)cc(C)oc2=O)c2coc3ccccc3c2=O)c(=O)o1")
12.5
>>> obs_value("COC1=CC(=O)C[C@@H](C)[C@]12Oc1c(Cl)c(OC)cc(OC)c1C2=O [GRISEOFULVIN]")
12.5
>>> obs_value("O=c1oc2ccccc2c(O)c1C(c1c(O)c2ccccc2oc1=O)c1coc2ccccc2c1=O")
25
>>> obs_value("Cc1cc2oc(=O)c(C(c3c(O)c4cc(C)c(C)cc4oc3=O)c3coc4ccccc4c3=O)c(O)c2cc1C")
12.5

Read the next record carefully.
Hello, please tell me recorded MIC for this one: Cc1[nH]n(-c2ccccc2)c(=O)c1C(c1coc2ccccc2c1=O)c1c(C)[nH]n(-c2ccccc2)c1=O
25

---

# Tested on: Candida albicans
# MEASUREMENT PROTOCOL: Antifungal activity against Candida albicans assessed as growth inhibition after 48 hr by macrodilution method
# Type: functional
Below is a list of entries, each paired with its recorded MIC value.
Lab book: enter the figure in µg/mL, no units written.

>>> obs_value("Cc1[nH]n(-c2ccccc2)c(=O)c1C(c1coc2ccccc2c1=O)c1c(C)[nH]n(-c2ccccc2)c1=O")
25
>>> obs_value("O=c1oc2ccccc2c(O)c1C(c1c(O)c2ccccc2oc1=O)c1coc2ccccc2c1=O")
25
>>> obs_value("COC1=CC(=O)C[C@@H](C)[C@]12Oc1c(Cl)c(OC)cc(OC)c1C2=O")
6.25
>>> obs_value("Cc1cc2oc(=O)c(C(c3c(O)c4cc(C)c(C)cc4oc3=O)c3coc4ccccc4c3=O)c(O)c2cc1C")
12.5

Read the next record carefully.
Hello, please tell me recorded MIC for this one: Cc1cc(O)c(C(c2c(O)cc(C)oc2=O)c2coc3ccccc3c2=O)c(=O)o1
12.5

---

# Test system: Candida albicans
# MEASUREMENT PROTOCOL: Fungicidal activity against Candida albicans after 48 hr
# Assay type: functional
MEASURE NAME: MFC (µg/mL)
Lab book: enter the figure in µg/mL, no units written.

See these solved cases before continuing.
>>> obs_value("COC1=CC(=O)C[C@@H](C)[C@]12Oc1c(Cl)c(OC)cc(OC)c1C2=O")
25
>>> obs_value("O=c1oc2ccccc2c(O)c1C(c1c(O)c2ccccc2oc1=O)c1coc2ccccc2c1=O")
100
>>> obs_value("Cc1[nH]n(-c2ccccc2)c(=O)c1C(c1coc2ccccc2c1=O)c1c(C)[nH]n(-c2ccccc2)c1=O")
50
>>> obs_value("Cc1cc(O)c(C(c2c(O)cc(C)oc2=O)c2coc3ccccc3c2=O)c(=O)o1")
50

Hello, please tell me recorded MFC for this one: Cc1cc2oc(=O)c(C(c3c(O)c4cc(C)c(C)cc4oc3=O)c3coc4ccccc4c3=O)c(O)c2cc1C
25
